# key: entry, value: pIC50
test target: CathepsinG, from human neutrophils (Homo sapiens, UniProt P08311)
Sequence (P08311 21-244): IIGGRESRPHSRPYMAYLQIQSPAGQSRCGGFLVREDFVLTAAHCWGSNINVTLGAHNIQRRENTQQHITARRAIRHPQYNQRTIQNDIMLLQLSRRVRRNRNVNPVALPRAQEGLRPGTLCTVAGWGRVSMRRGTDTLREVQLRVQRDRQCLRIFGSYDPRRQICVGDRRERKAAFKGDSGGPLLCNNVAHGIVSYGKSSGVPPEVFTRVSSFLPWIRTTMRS
test description: Enzymatic assay, cathepsin G
condition label: read-out: Cathepsin G IC50
Where a SMILES comes first, the peptide text is derived from it.
Reminder that pIC50 means the negative base-10 logarithm of the concentration expressed in mol/L.

Worked examples follow.
• CCCC[C@@H]1NC(=O)[C@H]([C@@H](C)O)NC(=O)[C@@H]2CSSC[C@H](NC(=O)[C@H]([C@@H](C)CC)NC(=O)[C@@H]3CCCN3C(=O)[C@@H]3CCCN3C(=O)[C@H](CC(=O)O)NC(=O)[C@H](CO)NC1=O)C(=O)N[C@@H](CCCNC(=N)N)C(=O)N1CCC[C@@H]1C(=O)N1CCC[C@H]1C(=O)N[C@@H]([C@@H](C)CC)C(=O)N2 [Ex. 59] (HELM PEPTIDE1{I.C.T.[Nle].S.D.P.P.I.C.R.[dP].P}$PEPTIDE1,PEPTIDE1,2:R3-10:R3|PEPTIDE1,PEPTIDE1,1:R1-13:R2$$$V2.0) = 7.26
• CCCC[C@@H]1NC(=O)[C@H]([C@@H](C)O)NC(=O)[C@@H]2CSSC[C@H](NC(=O)[C@H]([C@@H](C)CC)NC(=O)[C@@H]3CCCN3C(=O)[C@@H]3CCCN3C(=O)[C@H](CC(=O)O)NC(=O)[C@H](CO)NC1=O)C(=O)N[C@@H](Cc1ccc(O)cc1)C(=O)N1CCC[C@@H]1C(=O)N1CCC[C@H]1C(=O)N[C@@H](Cc1ccccc1)C(=O)N2 [Ex. 60] (HELM PEPTIDE1{F.C.T.[Nle].S.D.P.P.I.C.Y.[dP].P}$PEPTIDE1,PEPTIDE1,2:R3-10:R3|PEPTIDE1,PEPTIDE1,1:R1-13:R2$$$V2.0) = 7.42
• CCCC[C@@H]1NC(=O)[C@@H]2CCCN2C(=O)[C@@H]2CCCN2C(=O)[C@H](CC(=O)O)NC(=O)[C@H](CO)NC(=O)[C@H](CCCCN)NC(=O)[C@H]([C@@H](C)O)NC(=O)[C@@H]2CSSC[C@H](NC1=O)C(=O)N[C@@H](CCCNC(=N)N)C(=O)N1CCC[C@@H]1C(=O)N1CCC[C@H]1C(=O)N[C@@H]([C@@H](C)CC)C(=O)N2 [Ex. 57] (HELM PEPTIDE1{I.C.T.K.S.D.P.P.[Nle].C.R.[dP].P}$PEPTIDE1,PEPTIDE1,2:R3-10:R3|PEPTIDE1,PEPTIDE1,1:R1-13:R2$$$V2.0) = 7.39
• C[C@@H](O)[C@@H]1NC(=O)[C@@H]2CSSC[C@H](NC(=O)[C@H](CC3CCCCC3)NC(=O)[C@@H]3CCCN3C(=O)[C@@H]3CCCN3C(=O)[C@H](CC(=O)O)NC(=O)[C@H](CO)NC(=O)[C@H](CCCCN)NC1=O)C(=O)N[C@@H](CO)C(=O)N1CCC[C@@H]1C(=O)N1CCC[C@H]1C(=O)N[C@@H](Cc1ccccc1)C(=O)N2 [compound 54] (HELM PEPTIDE1{F.C.T.K.S.D.P.P.[Cha].C.S.[dP].P}$PEPTIDE1,PEPTIDE1,2:R3-10:R3|PEPTIDE1,PEPTIDE1,1:R1-13:R2$$$V2.0) = 7.18
• CC[C@H](C)[C@@H]1NC(=O)[C@@H]2CCCN2C(=O)[C@H]2CCCN2C(=O)[C@H](CCCNC(=N)N)NC(=O)[C@@H]2CSSC[C@H](NC1=O)C(=O)N[C@@H]([C@@H](C)O)C(=O)N[C@@H](CCCCN)C(=O)N[C@@H](CO)C(=O)N[C@@H](CC(=O)O)C(=O)N1CCC[C@H]1C(=O)N1CCC[C@H]1C(=O)N[C@@H](CCC(N)=O)C(=O)N2 [Ex. 55] (HELM PEPTIDE1{I.C.T.K.S.D.P.P.Q.C.R.[dP].P}$PEPTIDE1,PEPTIDE1,2:R3-10:R3|PEPTIDE1,PEPTIDE1,1:R1-13:R2$$$V2.0) = 7.26

Observed pIC50 on CathepsinG, from human neutrophils (Homo sapiens, UniProt P08311), entry CC[C@H](C)[C@@H]1NC(=O)[C@H](C)NC(=O)[C@@H]2CCCN2C(=O)[C@H](CC(=O)O)NC(=O)[C@H](CO)NC(=O)[C@H](CCCCN)NC(=O)[C@H]([C@@H](C)O)NC(=O)[C@@H]2CSSC[C@H](NC1=O)C(=O)N[C@@H](CCCNC(=N)N)C(=O)N1CCC[C@@H]1C(=O)N1CCC[C@H]1C(=O)N[C@@H]([C@@H](C)CC)C(=O)N2 [Ex. 52] (HELM PEPTIDE1{I.C.T.K.S.D.P.A.I.C.R.[dP].P}$PEPTIDE1,PEPTIDE1,2:R3-10:R3|PEPTIDE1,PEPTIDE1,1:R1-13:R2$$$V2.0) , equals 7.28
